Test: Drug metabolism in rat assessed as parent compound level in urine
Type: ADME
Conditions: read-out: Drug excretion
quantity_measured: dose excreted

Input line: # dose excreted lookup, item COc1cc2nc(N3CCN(C(=O)c4ccco4)CC3)nc(N)c2cc1OC.Cl [PRAZOSIN HYDROCHLORIDE]
Output line: 6%

###

Assay: Drug metabolism in dog assessed as parent compound level in bile
Type: ADME, Canis lupus familiaris
Settings: read-out: Drug excretion
quantity_measured: dose excreted

Input line: # dose excreted lookup, item COc1cc2nc(N3CCN(C(=O)c4ccco4)CC3)nc(N)c2cc1OC.Cl [PRAZOSIN HYDROCHLORIDE]
Output line: 6%

###

Test system: Canis familiaris
Experiment: Antihypertensive activity in anesthetized normotensive mongrel dog assessed as maximum decrease in blood pressure at 1 mg/kg, iv administered at 30 mins intervals
Assay type: functional, Canis lupus familiaris
quantity_measured: Activity

Previously resolved entries follow.
[
  {
    "molecule": "COc1cc2nc(N3CCN(C(=O)c4ccco4)CC3)nc(N)c2cc1OC.Cl [PRAZOSIN HYDROCHLORIDE]",
    "Activity": "55 mmHg"
  },
  {
    "molecule": "COc1cc2nc(N3CCN(C(=O)c4ccco4)CC3)nc(N)c2cc1O.O=S(=O)(O)O",
    "Activity": "15 mmHg"
  },
  {
    "molecule": "COc1cc2c(N)nc(N3CCN(C(=O)c4ccco4)CC3)nc2cc1O.O=S(=O)(O)O",
    "Activity": "18 mmHg"
  }
]

Could you now look at the following molecule, please?
Input line: # Activity lookup, item "COc1cc2nc(N)nc(N)c2cc1OC"
Output line: 23 mmHg
